# System: crabgrass, large (large crabgrass, Digitaria sanguinalis)
# assay-method-text: Test A pre-/postemergence: crabgrass, large
# Assay type: in vivo
# cond: Preemergence, 500 g ai/ha; 0 to 100 scale, 0 is no effect, 100 is complete control
Measured Plant response rating, Crabgrass, Large by item

Below, each entry is followed by its recorded Plant response rating, Crabgrass, Large result.
Ask | Name the recorded Plant response rating, Crabgrass, Large for CSc1nn(-c2ccc(F)cc2)nc1Cc1ccnc(C(F)(F)F)c1 .
Reply | 40

Ask | Name the recorded Plant response rating, Crabgrass, Large for Cc1nn(-c2ccc(C(F)(F)F)cn2)nc1Cn1cnc(C(F)(F)F)n1 .
Reply | 100

Ask | Name the recorded Plant response rating, Crabgrass, Large for Cc1nn(-c2ccc(C(F)F)cn2)nc1C(=O)c1cccc(C(F)(F)F)c1 .
Reply | 0

Next:
Ask | Name the recorded Plant response rating, Crabgrass, Large for Cc1nn(-c2ccc(C(F)(F)F)cc2)nc1Oc1cccc(C(F)(F)F)c1 .
Reply | 100

Ask | Name the recorded Plant response rating, Crabgrass, Large for Cc1nn(-c2ccc(C(F)(F)F)cc2)nc1Cn1cc(C(F)(F)F)cn1 .
Reply | 30

---

Measured Plant response rating, Goosegrass by item
# Test system: goosegrass (Eleusine indica)
# assay-method-text: Test C pre-/postemergence: goosegrass
# Assay type: in vivo
# cond: Preemergence, 31 g ai/ha; scale of 0 to 100, 0 is no effect, 100 is complete control

Below, each entry is followed by its recorded Plant response rating, Goosegrass result.
Ask | Name the recorded Plant response rating, Goosegrass for Cc1nn(-c2ccc(C(F)(F)F)cn2)nc1Cc1cccc(C(F)(F)F)c1 .
Reply | 80

Ask | Name the recorded Plant response rating, Goosegrass for Cc1nn(-c2ccc(C(F)(F)F)cc2)nc1Oc1ccnc(C(F)(F)F)c1 .
Reply | 98

Ask | Name the recorded Plant response rating, Goosegrass for COc1nn(-c2cccc(F)c2)nc1Cc1ccnc(C(F)(F)F)c1 .
Reply | 98

Next:
Ask | Name the recorded Plant response rating, Goosegrass for FC(F)Oc1nn(-c2ccc(C(F)(F)F)cc2)nc1Cc1ccnc(C(F)(F)F)c1 .
Reply | 95

---

# Tested on: foxtail, giant (giant foxtail, Setaria faberii)
# assay-method-text: Test A pre-/postemergence: foxtail, giant
# Assay type: in vivo
# cond: Postemergence, 125 g ai/ha; 0 to 100 scale, 0 is no effect, 100 is complete control
value-kind: Foxtail, Giant plant response rating
Number only, please.

Below, each entry is followed by its recorded Foxtail, Giant plant response rating result.
Ask | Name the recorded Foxtail, Giant plant response rating for Cc1nn(-c2ccc(F)cc2)nc1Oc1cccc(C(F)(F)F)n1 .
Reply | 10

Ask | Name the recorded Foxtail, Giant plant response rating for COc1nn(-c2ccc(C(F)(F)F)cc2)nc1C(C)(O)c1ccnc(C(F)(F)F)c1 (centres unmarked) .
Reply | 0

Ask | Name the recorded Foxtail, Giant plant response rating for Cc1nn(-c2ccc(F)cc2)nc1Oc1nccc(C(F)(F)F)n1 .
Reply | 0

Ask | Name the recorded Foxtail, Giant plant response rating for Cc1nn(-c2ccc(C(F)(F)F)cc2)nc1Cn1cc(C(F)(F)F)nc1Cl .
Reply | 50

Ask | Name the recorded Foxtail, Giant plant response rating for Fc1ccc(-n2nc(Cc3ccnc(C(F)(F)F)c3)c(OC(F)F)n2)cc1 .
Reply | 90

Ask | Name the recorded Foxtail, Giant plant response rating for Cc1nn(-c2ccc(F)c(F)c2)nc1Cc1ccnc(C(F)(F)F)c1 .
Reply | 90

Ask | Name the recorded Foxtail, Giant plant response rating for Cc1nn(-c2ccc(F)cc2)nc1Oc1cccc(C(F)(F)F)c1 .
Reply | 80

Ask | Name the recorded Foxtail, Giant plant response rating for Cc1nn(-c2ccnc(Cl)c2)nc1Cc1ccnc(C(F)(F)F)c1 .
Reply | 90

Ask | Name the recorded Foxtail, Giant plant response rating for Cc1nn(-c2ccnc(C(F)(F)F)c2)nc1C(=O)c1cccc(C(F)(F)F)c1 .
Reply | 30

Ask | Name the recorded Foxtail, Giant plant response rating for Cc1nn(-c2ccc(C(F)(F)F)cc2)nc1Oc1cccc(OC(F)(F)F)c1 .
Reply | 20

Next:
Ask | Name the recorded Foxtail, Giant plant response rating for COc1cc(Cc2nn(-c3ccc(C(F)(F)F)cc3)nc2C)ccn1 .
Reply | 10

Ask | Name the recorded Foxtail, Giant plant response rating for Cc1nn(-c2ccc(C(F)(F)F)cc2)nc1Sc1cccc(C(F)(F)F)c1 .
Reply | 10

Ask | Name the recorded Foxtail, Giant plant response rating for Cc1nn(-c2ccc(C(F)(F)F)cn2)nc1C(=O)c1cccc(C(F)(F)F)c1 .
Reply | 40

Ask | Name the recorded Foxtail, Giant plant response rating for COc1nn(-c2cccc(F)c2)nc1Cc1ccnc(C(F)(F)F)c1 .
Reply | 90

Ask | Name the recorded Foxtail, Giant plant response rating for Cc1cc(Oc2nn(-c3ccc(F)cc3)nc2C)ccn1 .
Reply | 0

Ask | Name the recorded Foxtail, Giant plant response rating for Cc1nn(-c2ccc(C(F)(F)F)c(F)c2)nc1Oc1ccnc(C(F)(F)F)c1 .
Reply | 80

Ask | Name the recorded Foxtail, Giant plant response rating for COc1nn(-c2ccc(C(F)(F)F)cc2)nc1C(O)c1ccnc(C(F)(F)F)c1 (centres unmarked) .
Reply | 10

---

# Tested on: sedge, umbrella (small-flower umbrella sedge, Cyperus difformis)
# assay-method-text: Test C flooded paddy test: sedge, umbrella
# Assay type: in vivo
# cond: Flood (flooded paddy test), 125 g ai/ha; visual rating after 13 to 15 days, scale 0 to 100 (0 no effect, 100 complete control)
Measured Plant response rating, Sedge, Umbrella by item
Number only, please.

Below, each entry is followed by its recorded Plant response rating, Sedge, Umbrella result.
Ask | Name the recorded Plant response rating, Sedge, Umbrella for FC(F)(F)c1ccc(-n2nc(Br)c(Cc3cccc(C(F)(F)F)c3)n2)cc1 .
Reply | 50

Ask | Name the recorded Plant response rating, Sedge, Umbrella for Cc1nn(-c2ccc(C(F)(F)F)cc2)nc1Oc1ccnc(OCC(F)(F)F)c1 .
Reply | 0

Ask | Name the recorded Plant response rating, Sedge, Umbrella for Cc1nn(-c2ccc(C(F)(F)F)cn2)nc1Cn1cnc(C(F)(F)F)n1 .
Reply | 0

Next:
Ask | Name the recorded Plant response rating, Sedge, Umbrella for COc1cc(Cc2nn(-c3ccc(C(F)(F)F)cc3)nc2C)ccn1 .
Reply | 0

Ask | Name the recorded Plant response rating, Sedge, Umbrella for Cc1nn(-c2nc(Cl)ns2)nc1C(=O)c1cccc(C(F)(F)F)c1 .
Reply | 0

Ask | Name the recorded Plant response rating, Sedge, Umbrella for COc1nn(-c2ccc(C(F)(F)F)cc2)nc1C(C)(O)c1ccnc(C(F)(F)F)c1 (centres unmarked) .
Reply | 0

Ask | Name the recorded Plant response rating, Sedge, Umbrella for FC(F)(F)c1ccc(-n2nc(Br)c(Cc3cccc(C(F)(F)F)c3)n2)nc1 .
Reply | 0

Ask | Name the recorded Plant response rating, Sedge, Umbrella for COc1nn(-c2ccc(C(F)(F)F)cc2)nc1Cn1nc(C(F)(F)F)cc1C(F)(F)F .
Reply | 20

---

# System: buckwheat, wild (wild buckwheat, Polygonum convolvulus)
# assay-method-text: Test D pre-/postemergence: buckwheat, wild
# Format: in vivo
# cond: Postemergence, 250 g ai/ha; scale 0 to 100 (0 no effect, 100 complete control)
# From the text: […] Treated plants and controls were maintained in a controlled growth environment for 14 to 21 days after which time all species were compared to controls and visually evaluated. […]
value-kind: Plant response rating: Buckwheat, Wild

Ask | Name the recorded Plant response rating: Buckwheat, Wild for Cc1nn(-c2ccc(C(F)(F)F)cn2)nc1Oc1ccnc(C(F)(F)F)c1 [Compound 23] .
Reply | 75

Ask | Name the recorded Plant response rating: Buckwheat, Wild for COc1nn(-c2ccc(C(F)(F)F)cc2)nc1Cc1ccnc(C(F)F)c1 [Compound 138] .
Reply | 80

Ask | Name the recorded Plant response rating: Buckwheat, Wild for Cc1nn(-c2ccc(C(F)(F)F)cc2)nc1Oc1ccnc(C(F)(F)F)c1 [Compound 120] .
Reply | 98

Ask | Name the recorded Plant response rating: Buckwheat, Wild for FC(F)(F)COc1nn(-c2ccc(C(F)(F)F)cc2)nc1Cc1ccnc(C(F)(F)F)c1 [Compound 14] .
Reply | 100

Ask | Name the recorded Plant response rating: Buckwheat, Wild for Cc1nn(-c2ccc(C(F)(F)F)cn2)nc1Cc1cccc(C(F)(F)F)c1 [Compound 106] .
Reply | 100

---

Measured Plant response rating, Nightshade by item
# Tested on: nightshade (eastern black nightshade, Solanum ptycanthum)
# assay-method-text: Test C pre-/postemergence: nightshade
# Type: in vivo
# cond: Preemergence, 125 g ai/ha; scale 0 to 100, 0 no effect, 100 complete control
Number only, please.

Ask | Name the recorded Plant response rating, Nightshade for Cc1nn(-c2ccc(C(F)(F)F)cn2)nc1Oc1ccnc(C(F)(F)F)c1 [Compound 23] .
Reply | 95

Ask | Name the recorded Plant response rating, Nightshade for Cc1nn(-c2ccc(F)cc2F)nc1Oc1ccnc(C(F)(F)F)c1 [Compound 146] .
Reply | 90

Ask | Name the recorded Plant response rating, Nightshade for Cc1nn(-c2ccc(C(F)(F)F)c(F)c2)nc1Oc1ccnc(C(F)(F)F)c1 [Compound 148] .
Reply | 85

Now take the following molecule into account.
Ask | Name the recorded Plant response rating, Nightshade for COc1nn(-c2ccc(C(F)(F)F)cc2)nc1Cc1ccnc(C(F)F)c1 [Compound 138] .
Reply | 98
